testedSystem: T1, human IL4Rα expressed on 293F-IL4Rα cells (human, UniProt P24394 26-825)
T1 construct: whole, on cells; also called cell surface human IL4Rα
methodSummary: flow cytometry on 293F-IL4Rα cells, blocked ligand biotin human IL4
parameterMeasured: pIC50
Please keep in mind that pIC50 is minus log10 of the molar concentration; only the number is needed.

Task: Which pIC50 value belongs to huB8G11F2B7G5E8-V4 (antibody, human IgG4 S228P, kappa, V domains shown, Humanized, human IgG4/kappa; also called huBSG11F2B7G5E8-V4) VH: EVQLVQSGAEVKKPGATVKISCKASGFNIKDTYMHWVKQAPGKGLEWMGRIDPTNGYTIYASKFQGKATITADTSSNTAYMELSSLRSEDTAVYHCVSRRPWFAYWGQGTLVTVSS VL: DIVMTQTPLSLSVTPGQPASISCRSSQSIVHSNGNTYLEWYLQKPGQSPQLLIYKVTNRFSGVPDRFSGSGSGTDFTLKISRVEAEDVGVYYCFQGSHVPYTFGQGTKLEIKR ?
Result: 9.29

Task: Cool, now mouse antibody B8G11F2B7G5E8 (antibody, V domains shown, Mouse hybridoma mAb; also called Mouse B8G11F2B7G5E8; mAb B8G11F2B7G5E8) VH: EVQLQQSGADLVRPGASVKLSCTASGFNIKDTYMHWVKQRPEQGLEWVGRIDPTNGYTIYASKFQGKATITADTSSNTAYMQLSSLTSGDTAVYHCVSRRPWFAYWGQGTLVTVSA VL: DILMTQTPLSLPVSLGAQASISCRSSQSIVHSNGNTYLEWYLQKPGQSPKLLIYKVTNRFSGVPDRFSGSGSGTDFTLKISRVEAEDLGIYYCFQGSHVPYTFGGGTKLEIK
Result: 9.30

Task: Cool, now huB8G11F2B7G5E8-V2 (antibody, human IgG4 S228P, kappa, V domains shown, Humanized, human IgG4/kappa; also called huBSG11F2B7G5E8-V2) VH: EVQLVQSGAEVKKPGATVKISCKVSGFNIKDTYMHWVKQAPGKGLEWVGRIDPTNGYTIYASKFQGKATITADTSSNTAYMELSSLRSEDTAVYHCVSRRPWFAYWGQGTLVTVSS VL: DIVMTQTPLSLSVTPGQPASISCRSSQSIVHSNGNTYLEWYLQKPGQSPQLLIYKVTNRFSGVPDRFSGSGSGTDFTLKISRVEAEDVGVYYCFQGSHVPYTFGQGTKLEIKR
Result: 9.27

Task: Cool, now huB8G11F2B7G5E8-V14 (antibody, human IgG4 S228P, kappa, V domains shown, Humanized, human IgG4/kappa; also called huBSG11F2B7G5E8-V14) VH: EVQLVQSGAEVKKPGATVKISCKVSGFNIKDTYMHWVKQAPGKGLEWMGRIDPTNGYTIYASKFQGKATITADTSSNTAYMELSSLRSEDTAVYHCVSRRPWFAYWGQGTLVTVSS VL: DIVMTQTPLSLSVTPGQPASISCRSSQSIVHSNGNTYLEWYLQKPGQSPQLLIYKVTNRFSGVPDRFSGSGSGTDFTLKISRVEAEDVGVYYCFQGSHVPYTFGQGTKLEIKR
Result: 9.22

Task: Cool, now chimeric antibody B8G11F2B7G5E8 (antibody, human IgG4 S228P, kappa, V domains shown, Mouse variable domains on human IgG4/kappa; also called Chimeric B8G11F2B7G5E8; chB8G11F2B7G5E8) VH: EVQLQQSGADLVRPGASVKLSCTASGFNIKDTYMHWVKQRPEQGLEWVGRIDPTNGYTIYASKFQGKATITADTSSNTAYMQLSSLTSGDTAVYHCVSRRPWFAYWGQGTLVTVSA VL: DILMTQTPLSLPVSLGAQASISCRSSQSIVHSNGNTYLEWYLQKPGQSPKLLIYKVTNRFSGVPDRFSGSGSGTDFTLKISRVEAEDLGIYYCFQGSHVPYTFGGGTKLEIKR
Result: 9.44
